Data provenance: patent US10280163B2

molecular target: cellular IDO1 in HeLa cells (Homo sapiens, UniProt P14902); construct: endogenous in cells; host or cells: HeLa cells (American Type Tissue Culture Collection), induced with human recombinant IFN-γ; assay: HeLa cell-based IDO1 Kyn (kynurenine) production assay; details: Table 1, 5-substituted imidazo[1,5-a]pyridines, IFN-γ 100 ng/mL, 48 hours
For each entry below, report its pEC50 value.
Quick note: pEC50 values are minus log10 of concentrations in mol/L.

Entry OC(c1c(-c2ccccc2)ccc2cncn12)C1CCCCC1 (centres unmarked) , pEC50 reported as 5.04

Entry OC(CCC1CCCCC1)c1cc(Cl)cc2cncn12 (centres unmarked) , pEC50 reported as 5.49

Entry OC(CC1CCCCC1)c1c(C2CC2)ccc2cncn12 (centres unmarked) , pEC50 reported as 6.36

Entry O=C(NC1CC1)c1cccc(C(O)c2c(C3CC3)ccc3cncn23)c1 (centres unmarked) , pEC50 reported as 5.25

Entry OC(c1c(Cl)ccc2cncn12)C1CCCCC1 (single isomer, unassigned) [Example A116a] , pEC50 reported as 6.57

* * *

For each entry below, report its IC50 value.
target: Recombinant IDO1 (Homo sapiens, UniProt P14902); construct: His tag (N); made in house; host or cells: E. coli; test: IDO1 enzymatic assay; format: biochemical; conditions: Table 1, 5-substituted imidazo[1,5-a]pyridines; 50 nM IDO1, 1.3 mM D-tryptophan; read-out: Enzyme IC50 (nM) IDO1
Sequence (P14902 whole entry): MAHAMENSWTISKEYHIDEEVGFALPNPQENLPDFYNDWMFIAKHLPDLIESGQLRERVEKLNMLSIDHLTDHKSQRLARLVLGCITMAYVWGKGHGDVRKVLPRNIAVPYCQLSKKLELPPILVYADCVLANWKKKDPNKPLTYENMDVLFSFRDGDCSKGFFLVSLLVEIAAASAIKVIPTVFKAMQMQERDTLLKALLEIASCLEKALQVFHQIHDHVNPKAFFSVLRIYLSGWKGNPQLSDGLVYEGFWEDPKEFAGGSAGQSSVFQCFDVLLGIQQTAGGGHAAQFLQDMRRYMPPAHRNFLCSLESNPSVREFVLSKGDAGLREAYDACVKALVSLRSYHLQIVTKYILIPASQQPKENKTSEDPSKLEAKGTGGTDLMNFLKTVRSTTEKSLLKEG
# unit: nM | format: bare number

Entry OC(c1c(C2CC2)ccc2cncn12)C1CC2CCC1C2 (stereo not drawn) , IC50 reported as 32

Entry OC(c1c(Cl)ccc2cncn12)C1CCCCC1 (stereo not drawn) [Example A116] , IC50 reported as 7.5

Entry OC(CCC1CCCCC1)c1cc(Cl)cc2cncn12 (stereo not drawn) , IC50 reported as 26

* * *

biological target: Recombinant IDO1 (Homo sapiens, UniProt P14902); construct: His tag (N); made in house; host or cells: E. coli; assay: IDO1 enzymatic assay; format: biochemical; conditions: Table 1, 5-substituted imidazo[1,5-a]pyridines; 50 nM IDO1, 1.3 mM D-tryptophan; read-out: Enzyme IC50 (nM) IDO1
RECORDED ENDPOINT: IC50 (nM)
# unit: nM | format: bare number

Entry OC(c1cccc2cncn12)C1CCCCCC1 (stereo not shown) , IC50 reported as 110

Entry OC(Cc1ccccc1)c1cccc2cncn12 (stereo not shown) , IC50 reported as 21000

Entry OC(c1c(C2CC2)ccc2cncn12)C1CC1 (stereo not shown) , IC50 reported as 25

Entry O=C(NC1CCCC(C(O)c2cc(Cl)cc3cncn23)C1)c1cccc(Cl)c1 (stereo not shown) , IC50 reported as 127

* * *

For each entry below, report its IC50 value.
target: Recombinant TDO (Homo sapiens); construct: His tag (C); made in house; host or cells: E. coli; assay: TDO enzymatic assay; assay type: biochemical; details: Table 2, 8-substituted imidazo[1,5-a]pyridines; 100 nM TDO, 0.5 mM L-tryptophan; read-out: Enzyme IC50 (nM) TDO
Sequence (P48775 whole entry): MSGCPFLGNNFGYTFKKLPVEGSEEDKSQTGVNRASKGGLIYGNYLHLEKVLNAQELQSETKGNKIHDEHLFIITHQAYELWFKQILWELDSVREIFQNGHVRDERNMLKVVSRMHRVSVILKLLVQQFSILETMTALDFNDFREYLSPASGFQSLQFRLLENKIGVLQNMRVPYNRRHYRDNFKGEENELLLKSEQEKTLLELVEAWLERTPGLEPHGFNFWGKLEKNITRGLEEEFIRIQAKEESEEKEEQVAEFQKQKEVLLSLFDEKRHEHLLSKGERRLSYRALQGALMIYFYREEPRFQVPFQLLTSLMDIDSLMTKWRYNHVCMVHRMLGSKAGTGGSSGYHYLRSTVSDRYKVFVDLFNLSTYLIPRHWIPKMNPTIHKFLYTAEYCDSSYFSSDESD
# output: numeric value plus its unit

Entry O[C@@H](c1c(C2CC2)ccn2cncc12)C1CCCCC1 (single isomer, unassigned) [Example B107b] , IC50 reported as 11000 nM

Entry Cc1cc(C(O)C2CCCCC2)c2cncn2c1 (stereo not shown) , IC50 reported as 190 nM

Entry OC(c1cc(Cl)cn2cncc12)C1CCCCC1 (stereo not shown) , IC50 reported as 100 nM

Entry OC(c1c(C2CC2)ccn2cncc12)C1CCCCC1 (single isomer, unassigned) [Example B107a] , IC50 reported as 1300 nM
